# assayedSystem: Jak2 (UniProt O60674)
# Sequence (O60674 whole entry, looked up): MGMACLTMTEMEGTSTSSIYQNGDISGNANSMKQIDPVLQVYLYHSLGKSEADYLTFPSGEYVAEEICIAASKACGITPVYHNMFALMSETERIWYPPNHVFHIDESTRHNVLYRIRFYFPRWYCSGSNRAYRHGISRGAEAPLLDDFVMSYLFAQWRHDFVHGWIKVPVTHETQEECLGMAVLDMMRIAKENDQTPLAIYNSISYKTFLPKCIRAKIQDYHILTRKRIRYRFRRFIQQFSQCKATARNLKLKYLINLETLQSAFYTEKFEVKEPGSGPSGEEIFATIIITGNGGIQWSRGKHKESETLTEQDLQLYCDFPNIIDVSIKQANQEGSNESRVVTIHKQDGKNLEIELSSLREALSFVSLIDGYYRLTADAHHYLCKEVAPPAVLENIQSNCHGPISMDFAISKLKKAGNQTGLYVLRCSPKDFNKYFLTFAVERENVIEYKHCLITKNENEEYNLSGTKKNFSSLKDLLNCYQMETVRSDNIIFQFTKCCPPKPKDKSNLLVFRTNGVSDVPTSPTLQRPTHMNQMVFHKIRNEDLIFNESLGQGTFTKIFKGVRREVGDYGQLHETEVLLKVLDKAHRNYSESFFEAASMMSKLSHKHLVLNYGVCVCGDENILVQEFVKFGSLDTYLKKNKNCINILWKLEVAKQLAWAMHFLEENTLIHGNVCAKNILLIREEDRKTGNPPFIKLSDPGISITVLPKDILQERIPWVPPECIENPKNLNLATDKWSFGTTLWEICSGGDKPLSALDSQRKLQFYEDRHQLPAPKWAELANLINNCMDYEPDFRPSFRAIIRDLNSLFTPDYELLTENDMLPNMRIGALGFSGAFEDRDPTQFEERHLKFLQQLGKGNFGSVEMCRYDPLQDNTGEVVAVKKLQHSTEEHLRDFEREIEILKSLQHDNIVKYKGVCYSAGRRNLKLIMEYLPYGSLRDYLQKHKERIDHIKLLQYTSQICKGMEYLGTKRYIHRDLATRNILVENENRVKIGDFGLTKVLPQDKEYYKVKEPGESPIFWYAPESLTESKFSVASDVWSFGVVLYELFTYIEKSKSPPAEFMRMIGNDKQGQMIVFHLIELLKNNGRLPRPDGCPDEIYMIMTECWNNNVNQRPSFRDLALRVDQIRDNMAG
# testProtocol: phosphorylation enrichment, bacterial display (enrichment ratio); higher = better substrate or ligand; peptides without Tyr show the background;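 further: 11-residue human phosphosite peptides and single-mutation variants displayed on the E. coli surface, counted by deep sequencing, each peptide's frequency after selection divided by its frequency in the unselected input library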;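 further: frequency after pTyr selection over input frequency; kinase dosed for 20-30% of maximal phosphorylation in three min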
Binary classification by phosphorylation enrichment, with 0.7 as an inclusive lower bound for true; all other cases are false.

Use these answered entries as a reference point.
ALAAPYVLYPS [CEFIP_Y1332_G1337S]; true
RTLSEYARPHV [RERE_Y1259]; true
SNNFIYTTLGV [FAM83B_Y639_K640T_YF]; false
DMDATYRPMYS [JUP_Y701]; false
YKPGFYNLKEK [LAMA1_Y490_C485Y]; true

From here, focus on the item given below.
-- ask In plain terms: is recorded phosphorylation enrichment at least 0.7 for SSDKVYAHQMV [MLH1_Y379] ?
-- reply false
